- target: T1, human HER3-huFc (human, UniProt P21860 20-643)
- T1 construct: also called huHER3; not shown: human Fc (huFc)
- method summary: ELISA, 0 days at 40 °C
experimental readout: EC50 (µg/mL)
Response body: numeric value in µg/mL, unit text excluded.

Q) So what's the measured EC50 for this one? humanized 3F8 antibody hu3F8-3 (antibody, human IgG1, kappa, V domains shown, also called Clone 3; clone-3) VH: QVQLQESGPGLVKPSETLSLTCTVSGYSITSAYYWNWIRQPFGKGLEWMGYISYDGRNNFNPSLKNRVSISRDTSKNQFSLKLSSVTAADTATYYCARDGDYDYFDYWGQGTTVTVSS VL: DIQMTQSPSSLSASVGDRVTITCRASQDISNYLNWYQQKPGKAPKLLIYYTSILHSGVPSRFSGSGSGTDYTFTISSLQPEDIATYFCQQGDTLPPTFGGGTKLEIKR
A) 0.0424
